assay: yeast display, Sf9 membrane polyspecificity reagent, FACS + sequencing; frameworks hold sequencing errors
measurement-label: polyreactivity (PSR sort gate)

Example cases with answers are listed next.
QVQLVESGGGLVQAGGSLRLSCAASGFIFAYNAMGWYRQAPGKERELVAAISWSGGSTYYADSVKGRFTISRDNAKNTVYLQMNSLKPEYTAVYYCNAKYLGRRWDGNYNYWGQGTQVTVSS ... high polyreactivity
QVQLVESGRGLVQAGGSLRLSCAASGRIFKTYAMGWYRQAPGKERELVAAITTSGDSTYYADSVKGRFTISRDNAKNTVYLQMNSLKPEDTAVYYCAARPRVRSSYRYYYWGQGTQLTVSS ... high polyreactivity
QVHLVESGGGLVQAGGSLRLTCAASGSIFAYYTMGWYRQEPGKERELVAAISRTGTSTFYADSVKGRFTISRDNAKNTVDLQMNSLKPEDTSVYYCIAVAPGKYNHWGQGTQVTVSS ... high polyreactivity
QVQLVESGGGLVQAGGSLRLSCAASGIIFRIYAMGWYRQAPGKERELVAAITYIGTSTYYADSVKGRFTISRDNAKNTVYLQMNSLKPEDTAVYFCYFYYVFRSDYWGQGTQVTVSS ... low polyreactivity

The record that follows has no polyreactivity (PSR sort gate) shown yet.
Exam item: I have this sequence here, "QVQLVESGGGLVQAGGSLRLICAASGFIYFFYAMGWSRQAPGKEMEFVAVITQSGGSTYYADSVKGRFTISRDNAKNTVYLQMNSLKPEDTAVYYFNADTVRYYPFFSVRYYYWGQGTQVTVSS" , and I need its recorded polyreactivity (PSR sort gate).
Marked response: low polyreactivity
